Data origin: ChEMBL document CHEMBL2163342

target_system: Corticotropin-releasing factor receptor 1 (Homo sapiens, UniProt P34998)
Sequence (P34998 whole entry): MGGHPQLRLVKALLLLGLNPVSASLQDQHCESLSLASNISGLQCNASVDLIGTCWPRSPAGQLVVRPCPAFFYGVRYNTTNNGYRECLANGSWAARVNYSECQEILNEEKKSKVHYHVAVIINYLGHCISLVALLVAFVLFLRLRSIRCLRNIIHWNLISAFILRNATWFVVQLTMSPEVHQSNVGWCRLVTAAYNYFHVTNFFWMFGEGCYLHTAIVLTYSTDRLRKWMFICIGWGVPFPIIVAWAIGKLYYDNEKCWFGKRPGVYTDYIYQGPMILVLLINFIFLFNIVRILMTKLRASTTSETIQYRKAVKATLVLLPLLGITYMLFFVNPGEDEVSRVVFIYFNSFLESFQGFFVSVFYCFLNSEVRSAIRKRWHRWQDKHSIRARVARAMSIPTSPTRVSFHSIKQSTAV
assay_method_text: Binding affinity to CRFR1 by autoradiography
# key: entry, value: Ki
Quick note: give the figure in nM, leave out the unit.

Worked examples, 2 compounds total:
- compound: "CCC(COC)n1nnc2c(Nc3ccc(O[11CH3])cc3C)nc(C)cc21 (stereo not drawn)"
  readout_kind: "Ki"
  reported_result: 1.7
- compound: "COCCN(CCOC)c1nc(C)nc2c(-c3ccc([76Br])cc3Cl)c(C)nn12"
  readout_kind: "Ki"
  reported_result: 2

Could you now look at the following compound, please?
Form field, Ki with Corticotropin-releasing factor receptor 1 (Homo sapiens, UniProt P34998), item COCCN(CCO[11CH3])Cc1cc(C)nc2c(-c3ccc(Cl)cc3Cl)c(C)nn12 [[11C]DMP-696] : 1.7

----------
# key: entry, value: logD
assay_method_text: Octanol-phosphate buffer partition coefficient, log D of the compound at pH 7.4 by shake flask method
Type: physicochemical
Give your answer as a number; write no unit.

Worked examples, 2 molecules total:
- smiles_representation: "COCC(COC)n1cc(Cl)nc(Nc2c(Cl)cc(OC)cc2Cl)c1=O"
  reported_result: 3.4
- smiles_representation: "COCC(COC)n1cc(Cl)nc(Nc2c(Cl)cc(OCCF)cc2Cl)c1=O"
  reported_result: 3.1

Could you now look at the following molecule, please?
Note to self: logD recorded for COCC(COC)n1cc(Br)nc(Nc2c(C)cc(OCF)cc2C)c1=O was 2.9

----------
System: Liver microsomes
assay_method_text: Drug metabolism in human liver microsomes assessed as compound depletion per mg of protein at 3 uM
Type: ADME, Microsome
Param threshold (0.07 pmol/min) applies to Drug metabolism; output 1 when value >= threshold, -1 when value < threshold.

Field: example entries. Status: answers known.
- smiles_representation: "COC[C@@H](C1CC1)n1cc(Cl)nc(Nc2cc(C)c(OC)cc2C)c1=O"
  target_system: "Liver microsomes"
  category_label: 1
- smiles_representation: "COCC(COC)n1cc(Br)nc(Nc2c(C)cc(OCF)cc2C)c1=O"
  target_system: "Liver microsomes"
  category_label: 1
- smiles_representation: "COCC(COC)n1cc(Cl)nc(Nc2c(Cl)cc(OC)cc2Cl)c1=O"
  target_system: "Liver microsomes"
  category_label: -1

Now for another entry.
Exercise: Check if Drug metabolism >= 0.07 pmol/min (inclusive). Item: COC[C@@H](C)n1cc(Cl)nc(Nc2cc(C)c(OC)cc2C)c1=O
Key: -1

----------
# key: entry, value: remaining at 13 min
assay_method_text: Metabolic stability in baboon plasma assessed as compound remaining after 9 and 13 mins
Type: ADME, cell-free
experimental_context: papio anubis, read-out: Stability
Quick note: give the figure in %, leave out the unit.

- compound: "CCCN(CCC)c1cc(C)nc2c(-c3ccc(N(C)[11CH3])nc3)c(C)nn12"
  remaining at 13 min / %: 50

Note to self: remaining at 13 min recorded for COCCN(CCO[11CH3])Cc1cc(C)nc2c(-c3ccc(Cl)cc3Cl)c(C)nn12 [[11C]DMP-696] was 50

----------
# key: entry, value: pIC50
target_system: Corticotropin-releasing factor receptor 1 (Rattus norvegicus)
Sequence (P35353 whole entry): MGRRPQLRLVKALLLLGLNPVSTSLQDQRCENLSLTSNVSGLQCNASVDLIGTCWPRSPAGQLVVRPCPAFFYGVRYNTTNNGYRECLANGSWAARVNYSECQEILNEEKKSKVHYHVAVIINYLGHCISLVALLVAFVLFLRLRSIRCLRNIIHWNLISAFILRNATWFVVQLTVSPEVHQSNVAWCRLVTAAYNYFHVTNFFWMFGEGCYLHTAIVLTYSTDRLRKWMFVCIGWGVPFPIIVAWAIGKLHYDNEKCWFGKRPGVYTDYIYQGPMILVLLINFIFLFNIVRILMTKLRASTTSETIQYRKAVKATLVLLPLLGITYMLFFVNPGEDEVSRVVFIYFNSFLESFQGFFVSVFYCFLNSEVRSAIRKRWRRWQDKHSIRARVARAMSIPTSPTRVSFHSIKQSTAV
Interpret pIC50 as the negative base-10 log of the concentration measured in mol/L.

- smiles_representation: "COC[C@@H](C1CC1)n1cc(Cl)nc(Nc2cc(C)c(OCF)cc2C)c1=O"
  target_system: "Corticotropin-releasing factor receptor 1 (Rattus norvegicus)"
  pIC50: 8.39

Could you now look at the following compound, please?
Form field, pIC50 with Corticotropin-releasing factor receptor 1 (Rattus norvegicus), item COCC(COC)n1cc(Cl)nc(Nc2c(Cl)cc(OCCF)cc2Cl)c1=O : 6.68
